src = PubChem BioAssay (Tox21)

- assay-procedure: G protein-coupled receptor (GPCR) small molecule agonists, calcium flux assay: HEK293 wild type cell line counter screen (AID 1920065); note: % is set by controls: 0 for no effect and ±100 for the full control effect
- recorded-conditions: HEK293 WT calcium flux, fluorescence, agonist mode; series mostly up to 57.6 µM
Active and inactive are the calls of the source. Calls come from the whole dose curve.
assay-endpoint: activation

• CCCCCCCCOc1ccccc1C(=O)Nc1ccc(C(=O)OCC[N+](C)(CC)CC)cc1 = inactive
• CCCCCCn1c(=O)c2c(ncn2C)n(C)c1=O = inactive
• CCCn1cnc2c1c(=O)n(CCCCC(C)=O)c(=O)n2C = inactive
• Nc1ccc(S(=O)(=O)Nc2ccnn2-c2ccccc2)cc1 = 0.406% [at 11.8 µM] (inactive)
• CCCCCCC/C=C/C=O = inactive
• N#C[C@@H]1CC(F)(F)CN1C(=O)CNC1CC2CCC(C1)N2c1ncccn1 (stereo partly specified) = inactive

---

- study-target: Beta-2 adrenergic receptor (Homo sapiens) (UniProt P07550)
- Sequence (P07550 whole entry, looked up): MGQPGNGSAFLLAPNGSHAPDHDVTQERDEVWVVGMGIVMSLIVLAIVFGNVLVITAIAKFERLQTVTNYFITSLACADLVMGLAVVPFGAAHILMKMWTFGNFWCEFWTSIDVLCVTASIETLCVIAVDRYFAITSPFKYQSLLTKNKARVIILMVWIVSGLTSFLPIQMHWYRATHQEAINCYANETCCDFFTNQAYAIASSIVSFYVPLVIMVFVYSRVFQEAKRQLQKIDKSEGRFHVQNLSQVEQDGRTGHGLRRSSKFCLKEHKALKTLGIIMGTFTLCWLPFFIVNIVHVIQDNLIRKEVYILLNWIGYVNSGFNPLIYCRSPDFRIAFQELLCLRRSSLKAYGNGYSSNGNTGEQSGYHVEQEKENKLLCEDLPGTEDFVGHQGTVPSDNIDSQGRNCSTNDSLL
- assay-procedure: Adrenergic beta2 receptor (ADRB2) small molecule antagonists, cell-based qHTS assay (AID 1963592); note: % is set by controls: 0 for no effect and ±100 for the full control effect; nearly all actives have a fitted effect of over 50% in size
- recorded-conditions: CHO-ADRB2 cells, isoproterenol-stimulated cAMP HTRF ratio, 0.5 h; series mostly up to 92.4 µM
Inconclusive results are not listed. Calls of active or inactive are those of the source. Calls come from the whole dose curve.
assay-endpoint: activity change, negative = inhibition

• CCOC(=O)CC#N = inactive
• CC(C)C(=O)Nc1cccc(C(F)(F)F)c1 = inactive
• O=C(O)CCNC(=O)c1ccccc1 = inactive
• COc1c(C)c2c(c(O)c1C/C=C(\C)CCC(=O)OCCN1CCOCC1)C(=O)OC2 = inactive
• CCCCCc1ccco1 = inactive
• C1=CCCC1 = inactive
• Cc1nc2n(c(=O)c1CCN1CCC(c3noc4cc(F)ccc34)CC1)CCC[C@H]2O = -0.824% [at 19 µM] (inactive)
• C[C@H]1NCc2cc(-c3ccc4c(=O)c(C(=O)O)cn(C5CC5)c4c3OC(F)F)ccc21 = 10.3% [at 19 µM] (inactive)
• CC(=O)Oc1cc(C(C)C)c(OCCN(C)C)cc1C = inactive
• COC(=O)c1cccc(Cl)c1 = inactive
• CCN(CC)C(=O)N1CCN(C)CC1 = inactive
• NC1CCN(c2cccc(Cl)n2)CC1 = inactive
• CC1CCc2cc(F)cc3c(=O)c(C(=O)O)cn1c23 (stereo not drawn) = inactive

---

- study-target: D(2) dopamine receptor (Homo sapiens) (UniProt P14416)
- Sequence (P14416 whole entry, looked up): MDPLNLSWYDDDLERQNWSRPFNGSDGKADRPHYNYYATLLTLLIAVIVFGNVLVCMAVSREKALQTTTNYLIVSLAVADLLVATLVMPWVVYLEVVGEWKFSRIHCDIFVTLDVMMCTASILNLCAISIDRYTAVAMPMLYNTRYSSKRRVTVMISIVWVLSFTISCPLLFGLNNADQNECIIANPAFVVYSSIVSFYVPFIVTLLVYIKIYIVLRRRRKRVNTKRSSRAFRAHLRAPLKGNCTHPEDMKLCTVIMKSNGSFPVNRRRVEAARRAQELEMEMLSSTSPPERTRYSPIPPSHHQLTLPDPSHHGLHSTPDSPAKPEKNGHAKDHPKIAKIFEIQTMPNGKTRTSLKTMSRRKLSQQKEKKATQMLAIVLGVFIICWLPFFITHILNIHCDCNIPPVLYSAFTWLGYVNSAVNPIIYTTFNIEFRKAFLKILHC
- assay-procedure: Dopamine D2 receptor (DRD2) small molecule antagonists, cell-based qHTS assay (AID 1963595); note: % is set by controls: 0 for no effect and ±100 for the full control effect
- recorded-conditions: HEK293-DRD2 cAMP HTRF antagonist mode; series mostly up to 92.4 µM
Inconclusive results are not listed. Calls of active or inactive are those of the source. The call rests on the fitted dose curve; in most records, active means well fitted inhibition curve with a large enough effect in the signal ratio in the repeat runs, with a control signal flat; inconclusive means weak or mixed curves, or effect the other way; inactive means flat fitted curve, though single readings scatter; the % refers to the signal ratio.
assay-endpoint: activity change, negative = inhibition

* CN(C)CCc1c[nH]c2ccc(C[C@H]3COC(=O)N3)cc12 | inactive
* O=C(Oc1ccccc1)c1ccccc1C(=O)Oc1ccccc1 | inactive
* O=CC(=O)c1ccccc1 | inactive
* CCNS(=O)(=O)c1ccc(C)cc1 | inactive
* CC/C(=C\C(=N/O)C(N)=O)C(C)[N+](=O)[O-] (configuration not stated) | inactive
* CCOC(=O)C(Br)c1ccccc1 (configuration not stated) | inactive
* CCS(=O)(=O)CCn1c([N+](=O)[O-])cnc1C | inactive
* CCN(CC)CCOc1ccc(C(O)(Cc2ccc(Cl)cc2)c2ccc(C)cc2)cc1 (configuration not stated) | inactive
* Oc1ccccc1C=NCc1ccccc1 | inactive
* S=C(SSSSSSC(=S)N1CCCCC1)N1CCCCC1 | 1.15% [at 18.9 µM] (inactive)
* CCCCCCCCOc1ccc(C(=O)O)cc1 | inactive
* Nc1ccc(C(=O)OCCCOC(=O)c2ccc(N)cc2)cc1 | inactive
* CC1(C)[C@H]2CC[C@]1(C)C(=O)C2 | inactive
* Cc1cccc(C)n1 | inactive
* OC[C@H]1O[C@@H](O[C@@H]2[C@@H](CO)O[C@](O)(CO)[C@H]2O)[C@H](O)[C@@H](O)[C@H]1O | inactive
* CCCOC(=O)c1ccc(N)cc1 | inactive
* Cc1cc(C)c(C=O)c(C)c1 | inactive
* CCCCCCCCN | inactive
* C[Si]1(C)O[Si](C)(C)O[Si](C)(C)O1 | inactive
* C=C(C)C1CC=C(C)C(O)C1 (configuration not stated) | inactive
* NC1CCN(c2nc3c(cc2F)c(=O)c(C(=O)O)cn3-c2ccc(F)cc2F)C1 (configuration not stated) | inactive
* COC(=O)/C=C\C(=O)O | inactive
* CN(C)CCC[C@@]1(c2ccc(F)cc2)OCc2cc(C#N)ccc21 | inactive
* CC(C)(O)c1ccc(CNC(=O)c2cccnc2Oc2ccc(F)cc2)cc1 | inactive
* CC1OCCC1=O (configuration not stated) | inactive
* O=c1c(-c2ccccc2)c1-c1ccccc1 | inactive
* N[C@@H](Cc1cc(I)c(O)c(I)c1)C(=O)O | inactive
